System: Aspergillus fumigatus
Assay: Antifungal activity against plant isolate Aspergillus fumigatus at 28 degC measured after 72 hr by microdilution method
Format: functional
Simple rule here: MIC less than 10 µM is T, otherwise F.

Inquiry: hey, is MIC for COc1cc(Cc2nnc(Nc3ccc(Cl)cc3)s2)c(S(=O)(=O)N2CCCCC2)cc1OC lower than 10 µM or not?
Reply text: F

Inquiry: hey, is MIC for COc1cc(Cc2nnc(Nc3ccc([N+](=O)[O-])cc3)s2)c(S(=O)(=O)N2CCCCC2)cc1OC lower than 10 µM or not?
Reply text: F

Inquiry: hey, is MIC for COc1cc(Cc2nnc(Nc3ccccc3)s2)c(S(=O)(=O)N(C)C)cc1OC lower than 10 µM or not?
Reply text: F

Inquiry: hey, is MIC for COc1cc(Cc2nnc(Nc3ccc(C(F)(F)F)cc3)s2)c(S(=O)(=O)N(C)C)cc1OC lower than 10 µM or not?
Reply text: F

Inquiry: hey, is MIC for COc1cc(Cc2nnc(Nc3ccc(Cl)cc3)s2)c(S(=O)(=O)N(C)C)cc1OC lower than 10 µM or not?
Reply text: F

Inquiry: hey, is MIC for CC(=O)N1CCN(c2ccc(OCC3COC(Cn4ccnc4)(c4ccc(Cl)cc4Cl)O3)cc2)CC1 (stereo unspecified) lower than 10 µM or not?
Reply text: F

Inquiry: hey, is MIC for COc1cc(Cc2nnc(Nc3ccc(C(F)(F)F)cc3)s2)c(S(=O)(=O)N2CCCCC2)cc1OC lower than 10 µM or not?
Reply text: T

Inquiry: hey, is MIC for COc1cc(Cc2nnc(Nc3ccc(C(F)(F)F)cc3)s2)c(S(=O)(=O)N2CCN(C)CC2)cc1OC lower than 10 µM or not?
Reply text: T

Inquiry: hey, is MIC for COc1cc(Cc2nnc(Nc3ccccc3)s2)c(S(=O)(=O)N2CCCC2)cc1OC lower than 10 µM or not?
Reply text: F

Inquiry: hey, is MIC for COc1cc(Cc2nnc(Nc3ccc(Cl)cc3)s2)c(S(=O)(=O)N2CCCC2)cc1OC lower than 10 µM or not?
Reply text: F
